# subject of test: KAT5 (Homo sapiens, UniProt Q92993)
# Sequence (Q92993 with tags, fused parts or gaps): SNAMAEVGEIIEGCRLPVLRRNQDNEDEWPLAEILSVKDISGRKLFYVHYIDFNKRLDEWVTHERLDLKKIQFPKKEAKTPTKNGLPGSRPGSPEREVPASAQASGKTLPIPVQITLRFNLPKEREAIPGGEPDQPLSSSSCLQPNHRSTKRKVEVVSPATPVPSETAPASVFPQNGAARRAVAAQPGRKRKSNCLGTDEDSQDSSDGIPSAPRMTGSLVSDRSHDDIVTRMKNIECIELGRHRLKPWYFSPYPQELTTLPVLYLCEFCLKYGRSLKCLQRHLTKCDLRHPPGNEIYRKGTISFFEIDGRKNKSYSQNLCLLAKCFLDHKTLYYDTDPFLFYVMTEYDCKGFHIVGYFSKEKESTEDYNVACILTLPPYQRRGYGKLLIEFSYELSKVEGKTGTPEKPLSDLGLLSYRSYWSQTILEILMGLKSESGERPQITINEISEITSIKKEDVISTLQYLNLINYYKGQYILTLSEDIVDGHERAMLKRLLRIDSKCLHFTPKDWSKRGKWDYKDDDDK
reported property: IC50

Worked examples, 2 compounds total:
COc1cccc(CS(=O)(=O)NNC(=O)c2cc(-c3ccccc3)cc(C)c2F)c1	≤ 10 µM
O=C(NNS(=O)(=O)C1CCCCC1)c1c(Cl)ccc(Cl)c1F	> 100 µM

Give reported IC50 for Cc1cc(-c2ccccc2)cc(C(=O)NCC(O)c2ccccc2)c1F (centres unmarked) (KAT5 (Homo sapiens, UniProt Q92993))
> 100 µM

Give reported IC50 for `Cc1cc(-c2ccccc2)cc(C(=O)NNS(=O)(=O)C2CC2)c1F` (KAT5 (Homo sapiens, UniProt Q92993))
50 to 100 µM

Give reported IC50 for `O=C(NNS(=O)(=O)CC1CCCCC1)c1cc(CO)cc(Cl)c1F` (KAT5 (Homo sapiens, UniProt Q92993))
≤ 10 µM

Give reported IC50 for `Cc1cc(-c2ccccc2)cc(C(=O)NNS(=O)(=O)C2CCN(C(=O)C(C)C)CC2)c1F` (KAT5 (Homo sapiens, UniProt Q92993))
≤ 10 µM

Give reported IC50 for `Cc1cc(-c2ccccc2)cc(C(=O)NNS(=O)(=O)C2CN(C(=O)c3ccccc3)C2)c1F` (KAT5 (Homo sapiens, UniProt Q92993))
10 to 50 µM

Give reported IC50 for `Cc1cc(-c2ccccc2)cc(C(=O)Nc2n[nH]c3ncccc23)c1F` (KAT5 (Homo sapiens, UniProt Q92993))
50 to 100 µM

Give reported IC50 for `O=C(NNS(=O)(=O)c1ccccc1)c1cccc(-c2ccccc2)c1` (KAT5 (Homo sapiens, UniProt Q92993))
> 100 µM

Give reported IC50 for `Cc1cc(-c2cc(F)cc(F)c2)cc(C(=O)NNS(=O)(=O)C2CCCCC2)c1F` (KAT5 (Homo sapiens, UniProt Q92993))
≤ 10 µM

Give reported IC50 for `Cc1cc(-c2cccc(Cl)c2)cc(C(=O)NNS(=O)(=O)CC2CCCCC2)c1F` (KAT5 (Homo sapiens, UniProt Q92993))
50 to 100 µM

Give reported IC50 for CC(C)(C)OC(=O)N1CCCC(CS(=O)(=O)NNC(=O)c2cc(-c3ccccc3)cc(Cl)c2F)C1 (centres unmarked) (KAT5 (Homo sapiens, UniProt Q92993))
≤ 10 µM

Give reported IC50 for `O=C(NNS(=O)(=O)c1cc(-c2ccccc2)cc(Cl)c1F)C1CCCCC1` (KAT5 (Homo sapiens, UniProt Q92993))
50 to 100 µM

* * *

As an illustration, consider measured IC50 for molecules on KAT6A (Homo sapiens, UniProt Q92794).
Sequence (Q92794 with tags, fused parts or gaps): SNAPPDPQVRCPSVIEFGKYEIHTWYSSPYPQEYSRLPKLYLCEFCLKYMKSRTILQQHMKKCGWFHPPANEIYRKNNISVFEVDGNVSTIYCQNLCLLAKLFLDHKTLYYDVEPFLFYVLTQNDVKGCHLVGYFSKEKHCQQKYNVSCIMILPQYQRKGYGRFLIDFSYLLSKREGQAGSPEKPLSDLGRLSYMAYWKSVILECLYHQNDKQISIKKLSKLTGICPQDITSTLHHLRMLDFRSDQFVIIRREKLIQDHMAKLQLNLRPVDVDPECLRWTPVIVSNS

Worked examples, 2 molecules total:
Cc1cc(-c2cc(F)cc(F)c2)cc(C(=O)NNS(=O)(=O)CC2CCCCC2)c1F	10 to 50 µM
Cc1cc(C(=O)NNS(=O)(=O)c2ccccc2)c(F)c(-c2ccccc2)c1	≤ 10 µM

API: the following record is the query input.
Give reported IC50 for `Cc1cc(-c2cccc(C(=O)N(C)C)c2)cc(C(=O)NNS(=O)(=O)C2CCCCC2)c1F` (KAT6A (Homo sapiens, UniProt Q92794))
> 100 µM

* * *

As an illustration, consider measured IC50 for molecules on KAT5 (Homo sapiens, UniProt Q92993).

Worked examples, 2 molecules total:
Cc1cc(-c2ccccc2)cc(C(=O)NNS(=O)(=O)c2cccc(C(N)=O)c2)c1F	≤ 10 µM
Cc1cccc(-c2cccc(C(=O)NNS(=O)(=O)c3ccccc3)c2F)c1	10 to 50 µM

Answer with reported IC50 of `Cn1cnc2c(C(=O)NNS(=O)(=O)C3CCCCC3)c(F)c(-c3ccccc3)cc21`
> 100 µM

Answer with reported IC50 of Cc1cc(-c2ccccc2)cc(C(=O)NNS(=O)(=O)C(C)C2CCCN(C(=O)OC(C)(C)C)C2)c1F (centres unmarked)
≤ 10 µM

* * *

pIC50: −log10 of the molar value.
As an illustration, consider measured pIC50 for compounds on KAT5 (Homo sapiens, UniProt Q92993).

Worked examples, 4 compounds total:
Cc1cc(-c2cccc(Cl)c2F)cc(C(=O)NNS(=O)(=O)CC2CCCCC2)c1F [Compound I-366]	4.30 to 5.00
O=C(NCCO)c1cc(Cl)c(F)c(C(=O)NNS(=O)(=O)C2CCOCC2)c1 [Compound I-480]	< 4.00
CNC(=O)c1cc(Cl)c(F)c(C(=O)NNS(=O)(=O)C2CCOCC2)c1 [Compound I-491]	< 4.00
Cc1cc(-c2cccc(C(=O)N(C)C)c2)cc(C(=O)NNS(=O)(=O)C2CCCCC2)c1F [Compound I-378]	4.00 to 4.30

Give reported pIC50 for COCCN1CCCC(CS(=O)(=O)NNC(=O)c2cc(-c3cccc(F)c3)cc(C)c2F)C1 (stereo not drawn) [Compound I-408] (KAT5 (Homo sapiens, UniProt Q92993))
≥ 5.00

Give reported pIC50 for COc1cc(Cl)c(F)c(C(=O)NNS(=O)(=O)C2CCOCC2)c1 [Compound I-430] (KAT5 (Homo sapiens, UniProt Q92993))
4.00 to 4.30

Give reported pIC50 for O=S(=O)(NNc1nc2ccccc2[nH]1)c1ccccc1 [Compound I-12] (KAT5 (Homo sapiens, UniProt Q92993))
< 4.00

Give reported pIC50 for Cc1cc(-c2ccccc2)cc(C(=O)NNS(=O)(=O)CC2CCNCC2)c1F [Compound I-141] (KAT5 (Homo sapiens, UniProt Q92993))
4.00 to 4.30

Give reported pIC50 for Cc1c(-c2ccccc2)ccc(F)c1C(=O)NNS(=O)(=O)CC1CCCCC1 [Compound I-258] (KAT5 (Homo sapiens, UniProt Q92993))
4.00 to 4.30

Give reported pIC50 for O=C(NNS(=O)(=O)c1ccccc1)c1cc2ccccc2cc1F [Compound I-262] (KAT5 (Homo sapiens, UniProt Q92993))
4.00 to 4.30

* * *

# subject of test: KAT5 (Homo sapiens)
reported property: IC50

Worked examples, 7 compounds total:
Cn1cc2c(C(=O)NNS(=O)(=O)c3ccccc3)cc(-c3ccccc3)cc2n1 [Compound I-345]	> 100 µM
COc1ccccc1S(=O)(=O)NNC(=O)c1ccccc1F [Compound I-174]	> 100 µM
Cc1cc(-c2cccc(F)c2)cc(C(=O)NNS(=O)(=O)C2CCOC2)c1F (centres unmarked) [Compound I-438]	10 to 50 µM
COCCNC(=O)c1cccc(-c2cc(C)c(F)c(C(=O)NNS(=O)(=O)CC3CCCCC3)c2)c1 [Compound I-447]	≤ 10 µM
Cc1cc(-c2ccccc2)cc(C(=O)NNS(=O)(=O)C2CCN(C)C2)c1F (centres unmarked) [Compound I-31]	50 to 100 µM
Cc1cc(-c2cccc(Cl)c2)cc(C(=O)NNS(=O)(=O)C2CCCCC2)c1F [Compound I-358]	≤ 10 µM
O=C(NNS(=O)(=O)CC1CCCNC1)c1cc(-c2ccccc2)cc(Cl)c1F (centres unmarked) [Compound I-410]	10 to 50 µM

API: the following record is the query input.
Give reported IC50 for COCCNC(=O)c1cccc(-c2cc(C)c(F)c(C(=O)NNS(=O)(=O)C3CCCCC3)c2)c1 [Compound I-445] (KAT5 (Homo sapiens))
10 to 50 µM

* * *

As an illustration, consider measured pIC50 for compounds on KAT6A (Homo sapiens).
pIC50: −log10 of the molar value.

Worked examples, 3 compounds total:
Cc1nn(-c2ccccc2)cc1C(=O)NNS(=O)(=O)c1ccccc1	< 4.00
Cc1cc(-c2cccnc2)cc(C(=O)NNS(=O)(=O)c2ccccc2)c1F	≥ 5.00
Cc1c(C(=O)NNS(=O)(=O)c2cccc(Cl)c2)cnn1-c1ccccc1	< 4.00

Give reported pIC50 for O=C(NN[S+]([O-])c1ccccc1)c1ccccc1F (centres unmarked) (KAT6A (Homo sapiens))
< 4.00

Give reported pIC50 for `Cc1cc(Cl)cc(C(=O)NNS(=O)(=O)C2CCCCC2)c1F` (KAT6A (Homo sapiens))
4.00 to 4.30

Give reported pIC50 for `COc1cc(Cl)c(F)c(C(=O)NNS(=O)(=O)CC2CCCCC2)c1` (KAT6A (Homo sapiens))
4.30 to 5.00

Give reported pIC50 for CCNC(=O)N1CCC(CS(=O)(=O)NNC(=O)c2cc(-c3cccc(C)c3)cc(Cl)c2F)C1 (centres unmarked) (KAT6A (Homo sapiens))
< 4.00

Give reported pIC50 for `Cc1cc(-c2ccccc2)cc(C(=O)NNS(=O)(=O)c2ccc(=O)[nH]c2)c1F` (KAT6A (Homo sapiens))
≥ 5.00

Give reported pIC50 for `O=C(NNS(=O)(=O)c1ccccc1)c1ccc(F)cc1` (KAT6A (Homo sapiens))
4.00 to 4.30

Give reported pIC50 for `Cc1cnc(CNC(=O)c2cc(-c3ccccc3)cc(C)c2F)[nH]1` (KAT6A (Homo sapiens))
< 4.00

Give reported pIC50 for `O=C(NNS(=O)(=O)CC1CCCCC1)c1cc(-c2cn3ccccc3n2)cc(Cl)c1F` (KAT6A (Homo sapiens))
< 4.00

Give reported pIC50 for Cc1cc(-c2ccccc2)cc(C(=O)NNS(=O)(=O)CC2CCCN(C(=O)C(C)(C)C)C2)c1F (centres unmarked) (KAT6A (Homo sapiens))
≥ 5.00
